- Subject Of Test: C/EBPα (UniProt P53566 1-359)
- Sequence (P53566 whole entry): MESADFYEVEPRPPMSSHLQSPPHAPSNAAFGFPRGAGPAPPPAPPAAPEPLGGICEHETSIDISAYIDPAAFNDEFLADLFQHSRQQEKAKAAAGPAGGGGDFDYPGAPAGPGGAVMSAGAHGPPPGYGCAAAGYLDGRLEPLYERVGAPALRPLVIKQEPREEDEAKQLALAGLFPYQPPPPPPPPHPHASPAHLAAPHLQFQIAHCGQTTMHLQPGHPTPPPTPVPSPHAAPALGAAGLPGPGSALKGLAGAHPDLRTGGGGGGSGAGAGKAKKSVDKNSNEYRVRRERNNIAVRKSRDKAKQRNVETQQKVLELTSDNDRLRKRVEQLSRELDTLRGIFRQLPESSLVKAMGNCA
- Test: ITC
Measure Name: Kd

Q: Form field: reported Kd of DISC1-CC (coiled coil, residues 765-835) (domain or fragment, UniProt Q811T9-1 765-835, looked up) GPWKEDSHIVSAEVGEKCEAIGVKLLHLEDQLLGAMYSHDEALFQSLQGELQTVKETLQAMILQLQPTKEA
A: ~11 µM
